measurementNotes: Parallel artificial membrane permeability assay (PAMPA)
Assay type: in vitro ADME
particulars: PAMPA, 500 μM in donor, 18 h, r.t.; unit from Eq. 1; read-out: PAMPA permeability (Pe), individual trials
recordedEndpoint: Papp at 18 h, 500 μM
# number then unit; no other words

[in] Look up Papp at 18 h, 500 μM: Cc1ccc(NC(=O)c2ccc(NC(=O)c3ccc([N+](=O)[O-])c(NCCc4c[nH]c5ccccc45)n3)c(NCC3CCCCC3)n2)c(OCC(=O)O)n1
[out] 2.92 ×10⁻⁶ cm/s

====

assaySystem: α-Synuclein (αS) aggregation (Homo sapiens)
Construct: made in house; host or cells: E. coli BL21(DE3)
measurementNotes: Thioflavin T (ThT) dye-based αS aggregation assay (de novo)
Format: biochemical
particulars: Fig. 5f profile, time 72 hr
recordedEndpoint: ThT fluorescence intensity, Average
Number only, please.

[in] I have this compound here, O=C(O[C@@H]1Cc2c(O)cc(O)cc2O[C@@H]1c1cc(O)c(O)c(O)c1)c1cc(O)c(O)c(O)c1 , and I need its recorded ThT fluorescence intensity, Average.
[out] 151.667

[in] Also, C=C(c1ccc(C(=O)O)cc1)c1cc2c(cc1C)C(C)(C)CCC2(C)C please.
[out] 195

[in] Can you handle Cc1ccc(NC(=O)c2ccc(NC(=O)c3ccc([N+](=O)[O-])c(NCCc4c[nH]c5ccccc45)n3)c(NCC3CCCCC3)n2)c(OCC(=O)O)n1 next?
[out] 43.6667

[in] Also CCCC(CCC)C(=O)O , if possible.
[out] 167.333

[in] # repeat for OCCc1ccc(O)cc1
[out] 175.333
